molecular target: JAK2 (Homo sapiens (Human), UniProt O60674)
Sequence (O60674 whole entry): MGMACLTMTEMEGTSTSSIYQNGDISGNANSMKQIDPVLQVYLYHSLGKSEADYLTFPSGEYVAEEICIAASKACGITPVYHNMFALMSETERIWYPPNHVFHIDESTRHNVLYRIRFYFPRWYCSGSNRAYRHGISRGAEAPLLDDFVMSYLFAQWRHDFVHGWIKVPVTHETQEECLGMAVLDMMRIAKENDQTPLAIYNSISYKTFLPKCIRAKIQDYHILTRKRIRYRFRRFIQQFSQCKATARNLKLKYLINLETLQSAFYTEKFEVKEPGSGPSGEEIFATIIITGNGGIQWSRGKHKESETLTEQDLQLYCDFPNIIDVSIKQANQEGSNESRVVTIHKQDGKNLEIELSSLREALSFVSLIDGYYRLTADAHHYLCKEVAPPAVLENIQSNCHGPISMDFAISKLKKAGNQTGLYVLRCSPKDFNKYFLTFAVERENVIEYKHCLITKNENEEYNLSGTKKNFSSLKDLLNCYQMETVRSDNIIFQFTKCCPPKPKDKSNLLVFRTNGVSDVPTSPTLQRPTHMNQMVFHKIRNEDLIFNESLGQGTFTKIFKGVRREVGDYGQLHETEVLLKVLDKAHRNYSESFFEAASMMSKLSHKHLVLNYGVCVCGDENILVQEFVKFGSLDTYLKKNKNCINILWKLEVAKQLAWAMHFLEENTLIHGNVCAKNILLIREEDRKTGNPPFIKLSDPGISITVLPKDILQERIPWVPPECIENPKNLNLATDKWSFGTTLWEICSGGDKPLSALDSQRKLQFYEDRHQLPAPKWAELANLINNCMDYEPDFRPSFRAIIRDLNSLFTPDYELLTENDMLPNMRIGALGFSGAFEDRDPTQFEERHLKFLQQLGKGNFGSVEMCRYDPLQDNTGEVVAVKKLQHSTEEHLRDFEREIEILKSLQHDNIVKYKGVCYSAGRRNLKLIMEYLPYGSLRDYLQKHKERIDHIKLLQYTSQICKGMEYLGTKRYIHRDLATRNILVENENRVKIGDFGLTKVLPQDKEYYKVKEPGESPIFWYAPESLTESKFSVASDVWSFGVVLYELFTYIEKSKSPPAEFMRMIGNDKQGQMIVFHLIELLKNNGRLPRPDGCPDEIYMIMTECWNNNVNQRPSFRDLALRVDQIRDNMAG
Mark rule met for IC50 under 20 nM, rule not met if at or over.

CHEM SMILES: CN(c1ccccc1CNc1nc(-c2cc(F)c(O)cc2CC(F)(F)F)cc2[nH]nc(C(N)=O)c12)S(=O)(=O)c1ccccc1
LABEL CLASS: rule not met
//
CHEM SMILES: CCc1cc(O)c(F)cc1-c1cc2[nH]nc(C(=O)NC)c2c(NCC2CCCC2)n1
LABEL CLASS: rule met

Attention now turns to another entry.
Please let me know if `CNC(=O)c1n[nH]c2cc(-c3cc(F)c(O)cc3CC(F)(F)F)nc(NCc3cc(O)ccc3N(C)S(=O)(=O)c3cccnc3)c12` shows IC50 below 20 nM.
rule not met
